# ASSAY: amyloid nucleation score (Sup35N fusion, yeast selection) (log enrichment); library NNK3; higher = more nucleation; inactive = no reads after selection;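 further: zero at mode of non-aggregating sequences after 7 days selection at 30°C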
ENDPOINT LABEL: amyloid nucleation score

Example entries begin here.
> print(dat)
              substance            endpoint.label  measurement
1          SEIIHLGFYYDP  amyloid nucleation score     inactive
2        KFVDDRKVCLVLHH  amyloid nucleation score     inactive
3  KEADSVNDRLVNLLMHGTLC  amyloid nucleation score     inactive
4   FRMNSLRVSLMESVCSSHT  amyloid nucleation score          1.1
5  WRRWQSRCGSLLRYSKETLN  amyloid nucleation score     inactive
6            HCVRVASWGT  amyloid nucleation score     inactive
7  VHYKVKGSLPFCCGYFNSLW  amyloid nucleation score         1.67
8  LCRYRNSYICSGNIIWMCSL  amyloid nucleation score     inactive

I have this substance here, `FGRGCHRSMTIGDLVFLLIT` , and I need its recorded amyloid nucleation score.
inactive

I have this substance here, `GSCFVKEVSGGHMLGS` , and I need its recorded amyloid nucleation score.
inactive

I have this substance here, `SIRNFVTSENTVLSDIKPWR` , and I need its recorded amyloid nucleation score.
inactive

I have this substance here, `NYFQFLKENFVARNKESRRG` , and I need its recorded amyloid nucleation score.
inactive

I have this substance here, `ISDLTHFRYRDVPNLLVRTK` , and I need its recorded amyloid nucleation score.
inactive

I have this substance here, `GSSVVS` , and I need its recorded amyloid nucleation score.
inactive

I have this substance here, `NTIRKKNLLFQAWLC` , and I need its recorded amyloid nucleation score.
inactive

I have this substance here, `YRAYVYEDTFWWAWYQFILL` , and I need its recorded amyloid nucleation score.
inactive

I have this substance here, `YPLYVHRCLIMTFMLSLWPR` , and I need its recorded amyloid nucleation score.
inactive

I have this substance here, `EFFYINAMPVLYIDPYTSCF` , and I need its recorded amyloid nucleation score.
inactive

I have this substance here, `FVLRTNWGGISVYIYDVCSC` , and I need its recorded amyloid nucleation score.
-0.238

I have this substance here, `SLMDNVLSFHFVVANWNTLD` , and I need its recorded amyloid nucleation score.
inactive

I have this substance here, `RSMVGWACYLSWRFA` , and I need its recorded amyloid nucleation score.
inactive

I have this substance here, `NMLVCITSDGLYFYCCGANS` , and I need its recorded amyloid nucleation score.
1.5

I have this substance here, `RYLLPQIPLLYKWKLLILHG` , and I need its recorded amyloid nucleation score.
inactive

I have this substance here, `YGDEASPLSFCIDHEDRVKV` , and I need its recorded amyloid nucleation score.
inactive

I have this substance here, `VFCLVYKKCLKSYCQYMVIG` , and I need its recorded amyloid nucleation score.
inactive

I have this substance here, `LGMSYVYTTGLQKQAASQ` , and I need its recorded amyloid nucleation score.
inactive

I have this substance here, `DYYIAPRVPYHVTTWNKDYL` , and I need its recorded amyloid nucleation score.
inactive

I have this substance here, `LRSVFSRYFGQVHEFSRQRY` , and I need its recorded amyloid nucleation score.
inactive

I have this substance here, `TCYITA` , and I need its recorded amyloid nucleation score.
inactive

I have this substance here, `NTRLSMAF` , and I need its recorded amyloid nucleation score.
inactive

I have this substance here, `VFNIRHSSDPRLYLTYVMSS` , and I need its recorded amyloid nucleation score.
1.19
